Species on record: Rattus norvegicus
Experiment: Open TG-GATES - Regimen: Single
Assay type: toxicity, organism-based, Sprague-Dawley
Parameters: regimen Single, gender Male, age 6 weeks
Settings: in vivo, po, 0 mg/kg, 6 h, tissue Plasma, route gavage, dose level Control
parameter measured: DBIL (mg/dL)

compound structure string | value units | observed result
CN(C)C(=N)N=C(N)N | mg/dL | 0.006
O=NN(CCCl)C(=O)NC1CCCCC1 | mg/dL | 0.01
CCc1oc2ccccc2c1C(=O)c1cc(Br)c(O)c(Br)c1 | mg/dL | 0.006

----------
Species: Rattus norvegicus
Assay: Open TG-GATES - Regimen: Daily Repeat
Assay type: toxicity, organism-based, Sprague-Dawley
Design: regimen Daily Repeat, gender Male, age 6 weeks
Conditions: in vivo, po, 0 mg/kg, […], tissue Blood, route gavage, dose level Control, time 14 day

compound | Ht / %
CCc1oc2ccccc2c1C(=O)c1cc(Br)c(O)c(Br)c1 | 43.8
CC1=C(CC(=O)O)c2cc(F)ccc2/C1=C\c1ccc([S+](C)[O-])cc1 (stereo not drawn) | 44.6
ClC(Cl)(Cl)Cl [CARBON TETRACHLORIDE] | 42.9

Origin of the recorded values: ChEMBL document CHEMBL3885861
